Molecular target: h-NPP-1 (Homo sapiens, UniProt P22413)
Construct: made in house; host or cells: COS-7 cells transiently transfected with a plasmid expressing human NPP-1; lysate/membrane fraction used as the enzyme
Sequence (P22413 whole entry): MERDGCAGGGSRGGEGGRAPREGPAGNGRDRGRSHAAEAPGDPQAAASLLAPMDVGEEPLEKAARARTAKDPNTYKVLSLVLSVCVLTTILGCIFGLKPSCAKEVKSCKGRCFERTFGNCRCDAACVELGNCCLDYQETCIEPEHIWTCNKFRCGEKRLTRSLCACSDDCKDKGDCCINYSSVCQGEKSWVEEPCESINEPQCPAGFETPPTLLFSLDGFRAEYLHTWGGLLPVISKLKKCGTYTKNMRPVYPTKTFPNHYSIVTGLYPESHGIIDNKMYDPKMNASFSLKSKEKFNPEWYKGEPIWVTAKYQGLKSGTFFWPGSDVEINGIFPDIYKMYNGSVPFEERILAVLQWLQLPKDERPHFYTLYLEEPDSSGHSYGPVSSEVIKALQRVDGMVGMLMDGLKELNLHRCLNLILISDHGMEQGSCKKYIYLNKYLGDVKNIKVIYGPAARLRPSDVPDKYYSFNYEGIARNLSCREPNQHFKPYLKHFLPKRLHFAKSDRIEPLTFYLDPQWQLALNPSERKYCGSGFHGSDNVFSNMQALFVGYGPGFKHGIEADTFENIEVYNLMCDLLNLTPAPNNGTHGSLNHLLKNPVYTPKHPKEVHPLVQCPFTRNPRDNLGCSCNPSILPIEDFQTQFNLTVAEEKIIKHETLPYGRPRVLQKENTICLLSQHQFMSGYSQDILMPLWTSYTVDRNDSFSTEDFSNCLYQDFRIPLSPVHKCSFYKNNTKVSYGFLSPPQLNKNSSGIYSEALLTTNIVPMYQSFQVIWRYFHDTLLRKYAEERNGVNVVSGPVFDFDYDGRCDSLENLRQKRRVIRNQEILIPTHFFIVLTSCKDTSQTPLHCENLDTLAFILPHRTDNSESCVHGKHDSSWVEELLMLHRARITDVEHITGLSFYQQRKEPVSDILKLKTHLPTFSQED
Test: Nucleotide pyrophosphatase inhibition assay (colorimetric, pNP-TMP substrate), h-NPP-1
Assay type: biochemical
Conditions: human recombinant NPP1, pNP-TMP substrate, pH 9.5, 37 °C, absorbance 405 nm; read-out: h-NPP-1 IC50 (µM) ± SEM
metric name: IC50 (µM)

Known IC50 results, listed for orientation:
chem smiles	IC50 / µM
Cc1ccc(-n2c3ccccc3c3oc4ccccc4c32)cc1	2.84
c1ccc2c(c1)oc1c3ccccc3n(C3CCCCC3)c21	6.14
c1ccc(Cn2c3ccccc3c3oc4ccccc4c32)cc1	2.62
FC(F)(F)c1cccc(-n2c3ccccc3c3oc4ccccc4c32)c1	3.57

1 = c1ccc(Cn2c3ccccc3c3oc4c5ccccc5n(Cc5ccccc5)c4c32)cc1
2 = COc1ccc(-n2c3ccccc3c3oc4c5ccccc5n(-c5ccc(OC)cc5)c4c32)cc1
Task: Recorded IC50 values differ for 1 and 2 ; which one is higher? Returns: label corresponding to the selected item.
Result: 2

====

Target: h-NPP-3 (Homo sapiens, UniProt O14638)
Construct: made in house; host or cells: COS-7 cells transiently transfected with a plasmid expressing human NPP-3; lysate/membrane fraction used as the enzyme
Sequence (O14638 whole entry): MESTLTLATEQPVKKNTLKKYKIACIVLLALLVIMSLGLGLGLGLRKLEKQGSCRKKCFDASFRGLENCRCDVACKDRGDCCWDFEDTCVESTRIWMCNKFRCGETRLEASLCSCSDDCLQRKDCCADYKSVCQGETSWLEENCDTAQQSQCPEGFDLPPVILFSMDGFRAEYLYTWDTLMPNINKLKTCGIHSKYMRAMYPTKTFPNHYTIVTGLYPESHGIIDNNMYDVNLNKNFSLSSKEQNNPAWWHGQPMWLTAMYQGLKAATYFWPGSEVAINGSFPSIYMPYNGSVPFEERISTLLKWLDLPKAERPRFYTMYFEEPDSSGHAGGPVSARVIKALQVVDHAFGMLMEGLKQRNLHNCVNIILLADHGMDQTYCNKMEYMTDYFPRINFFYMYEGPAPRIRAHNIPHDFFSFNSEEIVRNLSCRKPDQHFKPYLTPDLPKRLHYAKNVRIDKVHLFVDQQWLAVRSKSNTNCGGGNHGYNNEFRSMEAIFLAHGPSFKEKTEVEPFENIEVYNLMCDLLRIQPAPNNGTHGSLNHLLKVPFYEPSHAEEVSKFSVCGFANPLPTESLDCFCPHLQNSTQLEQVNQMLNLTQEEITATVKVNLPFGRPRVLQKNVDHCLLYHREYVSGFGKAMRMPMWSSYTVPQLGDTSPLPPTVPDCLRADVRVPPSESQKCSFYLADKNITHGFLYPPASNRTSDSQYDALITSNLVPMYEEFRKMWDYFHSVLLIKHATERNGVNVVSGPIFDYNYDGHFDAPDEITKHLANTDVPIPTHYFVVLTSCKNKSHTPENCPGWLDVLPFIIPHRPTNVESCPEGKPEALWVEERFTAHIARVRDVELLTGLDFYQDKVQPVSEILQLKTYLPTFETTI
Test: Nucleotide pyrophosphatase inhibition assay (colorimetric, pNP-TMP substrate), h-NPP-3
Assay type: biochemical
Conditions: human recombinant NPP3, pNP-TMP substrate, pH 9.5, 37 °C, absorbance 405 nm; read-out: h-NPP-3 IC50(µM) ± SEM
metric name: IC50 (µM)

1 = COc1ccc(-n2c3ccccc3c3oc4c5ccccc5n(-c5ccc(OC)cc5)c4c32)cc1
2 = c1ccc(-n2c3ccccc3c3oc4ccccc4c32)cc1
3 = c1ccc(Cn2c3ccccc3c3oc4ccccc4c32)cc1
4 = Cc1ccc(-n2c3ccccc3c3oc4c5ccccc5n(-c5ccc(C)cc5)c4c32)cc1
Task: Sort the listed molecules above so the one with the largest IC50 comes first and the smallest comes last. In your reply, arrange the labels in the requested order.
Result: 2, 4, 3, 1
(2: 1.38 µM, 4: 0.61 µM, 3: 0.27 µM, 1: 0.18 µM)

1 = FC(F)(F)c1cccc(-n2c3ccccc3c3oc4ccccc4c32)c1
2 = c1ccc2c(c1)oc1c3ccccc3n(C3CCCCC3)c21
Task: API: POST /compare with 1 and 2 ; response names the item with higher IC50. API: response body contains the label of the selected item.
Result: 2

I = Cc1ccc(-n2c3ccccc3c3oc4ccccc4c32)cc1
II = c1ccc(Cn2c3ccccc3c3oc4c5ccccc5n(Cc5ccccc5)c4c32)cc1
Task: Compare I and II by numeric IC50 and name the larger one. Output the label that corresponds to your choice.
Result: I
(I: 0.59 µM, II: 0.21 µM)

====

Catalogue of melting point values

Check out these entries, answers already filled in.
chem smiles	melting point
c1ccc(-n2c3ccccc3c3oc4ccccc4c32)cc1	137 to 139 °C
Cc1ccc(-n2c3ccccc3c3oc4ccccc4c32)cc1	134 to 135 °C
c1ccc2c(c1)oc1c3ccccc3n(C3CCCCC3)c21	163 to 164 °C
COc1ccc(-n2c3ccccc3c3oc4ccccc4c32)cc1OC	175 to 176 °C

Next item in the queue.
Task: Fill in: melting point of `FC(F)(F)c1cccc(-n2c3ccccc3c3oc4ccccc4c32)c1` is ___
Result: 178 to 179 °C

====

Target: h-NPP-3 (Homo sapiens)
Construct: made in house; host or cells: COS-7 cells transiently transfected with a plasmid expressing human NPP-3; lysate/membrane fraction used as the enzyme
Assay: Nucleotide pyrophosphatase inhibition assay (colorimetric, pNP-TMP substrate), h-NPP-3
Assay type: biochemical
Conditions: read-out: inhibitory value for h-NPP-3, IC50 ± SEM
metric name: pIC50
Convention used: pIC50 is expressed as -log10 of the molar concentration.

Task: Fill blank: measured pIC50 of the molecule `COc1ccc(-n2c3ccccc3c3oc4ccccc4c32)cc1` is ____.
Result: 6.59

====

Molecular target: h-NPP-1 (Homo sapiens, UniProt P22413)
Construct: made in house; host or cells: COS-7 cells transiently transfected with a plasmid expressing human NPP-1; lysate/membrane fraction used as the enzyme
Experiment: Nucleotide pyrophosphatase inhibition assay (colorimetric, pNP-TMP substrate), h-NPP-1
Type: biochemical
Conditions: human recombinant NPP1, pNP-TMP substrate, pH 9.5, 37 °C, absorbance 405 nm; read-out: h-NPP-1 IC50 (µM) ± SEM
metric name: IC50

Below: 3 compounds and their reported IC50.
chem smiles	recorded measurement
Fc1ccc(-n2c3ccccc3c3oc4c5ccccc5n(-c5ccc(F)cc5)c4c32)cc1	> 100 µM
FC(F)(F)c1cccc(-n2c3ccccc3c3oc4c5ccccc5n(-c5cccc(C(F)(F)F)c5)c4c32)c1	> 100 µM
COc1ccc(-n2c3ccccc3c3oc4ccccc4c32)cc1	> 100 µM

Task: // map `CCCCCCCn1c2ccccc2c2oc3ccccc3c21` to recorded IC50 (system: h-NPP-1 (Homo sapiens, UniProt P22413))
Result: 3.27 µM

Task: Follow-up item: `c1ccc(-n2c3ccccc3c3oc4ccccc4c32)cc1`
Result: > 100 µM
